Test system: HT-29
Test: Cytotoxicity against human HT-29 cells after 72 hrs by MTT assay
Type: functional
Details: HT-29, 72 h
Below, each entry is listed alongside its reported GI50.

[
  {
    "smiles-notation": "N#C/C(=C/c1ccc([N+](=O)[O-])cc1)C(=O)c1ccc[nH]1",
    "GI50": "< 10 µM"
  },
  {
    "smiles-notation": "N#C/C(=C\\c1cc(O)cc(O)c1)c1ccc(Cl)c(Cl)c1",
    "GI50": "> 100 µM"
  },
  {
    "smiles-notation": "N#C/C(=C/c1ccc(Cl)c(Cl)c1)C(=O)c1ccc[nH]1",
    "GI50": "< 10 µM"
  },
  {
    "smiles-notation": "COc1ccc(/C=C(/C#N)C(=O)c2ccc[nH]2)cc1",
    "GI50": "< 10 µM"
  },
  {
    "smiles-notation": "N#C/C(=C/c1ccc(O)cc1)C(=O)c1ccc[nH]1",
    "GI50": "< 10 µM"
  },
  {
    "smiles-notation": "N#C/C(=C/c1ccc2ccccc2c1)C(=O)c1ccc[nH]1",
    "GI50": "< 10 µM"
  }
]

====

Experiment: Cytotoxicity against human MIA cells after 72 hrs by MTT assay
Type: functional
Below, each entry is listed alongside its reported GI50.

[
  {
    "smiles-notation": "N#C/C(=C/c1ccc([N+](=O)[O-])cc1)C(=O)c1ccc[nH]1",
    "GI50": "< 10 µM"
  },
  {
    "smiles-notation": "N#C/C(=C/c1ccc(Cl)c(Cl)c1)C(=O)c1ccc[nH]1",
    "GI50": "< 10 µM"
  },
  {
    "smiles-notation": "N#C/C(=C\\c1cc(O)cc(O)c1)c1ccc(Cl)c(Cl)c1",
    "GI50": "> 100 µM"
  },
  {
    "smiles-notation": "COc1ccc(/C=C(/C#N)C(=O)c2ccc[nH]2)cc1",
    "GI50": "< 10 µM"
  },
  {
    "smiles-notation": "N#C/C(=C/c1ccc2ccccc2c1)C(=O)c1ccc[nH]1",
    "GI50": "< 10 µM"
  }
]
